We begin with a simple list: items and their reported pest or weed control at 8966.8 g/ha.
# Test system: Barnyard grass (BG)
# Assay Explanation: Post-emergence herbicide test
# Format: in vivo
# Test Parameters: Echinochloa crus-galli, 336 h, 8 lb/acre, two weeks after treatment
Value expressed in %; do not type the unit.

Molecule: CNC(=O)Nc1nnc(C(F)(F)F)s1 [Example 1]
Result Unit: %
pest or weed control at 8966.8 g/ha: 100
--
Molecule: C=CCNC(=O)Nc1nnc(C(F)(F)F)s1 [Example 12]
Result Unit: %
pest or weed control at 8966.8 g/ha: 50
--
Molecule: O=C(Nc1ccccc1)Nc1nnc(C(F)(F)F)s1 [Example 14]
Result Unit: %
pest or weed control at 8966.8 g/ha: 10
--
Molecule: CCNC(=O)Nc1nnc(C(F)(F)F)s1 [Example 9]
Result Unit: %
pest or weed control at 8966.8 g/ha: 40
--
Molecule: CNC(=O)Nc1nnc(-c2ccc(Cl)cc2)s1 [Example 71]
Result Unit: %
pest or weed control at 8966.8 g/ha: 20
--
Molecule: CNC(=O)N(C)c1nnc(SC)s1 [Example 38]
Result Unit: %
pest or weed control at 8966.8 g/ha: 90
--
Molecule: CNC(=O)Nc1nnc(OC)s1 [Example 24]
Result Unit: %
pest or weed control at 8966.8 g/ha: 20

// switching to the query molecule
Assign pest or weed control at 8966.8 g/ha to the following record: CNC(=O)N(C)c1nnc(C(C)(C)C)s1 [Example 42]
100
